Molecular target: Tyramine receptor (TyrR) (Drosophila melanogaster, UniProt P22270)
Construct: expressed in transfected cells; host or cells: model cells in culture
Sequence (P22270 27-601): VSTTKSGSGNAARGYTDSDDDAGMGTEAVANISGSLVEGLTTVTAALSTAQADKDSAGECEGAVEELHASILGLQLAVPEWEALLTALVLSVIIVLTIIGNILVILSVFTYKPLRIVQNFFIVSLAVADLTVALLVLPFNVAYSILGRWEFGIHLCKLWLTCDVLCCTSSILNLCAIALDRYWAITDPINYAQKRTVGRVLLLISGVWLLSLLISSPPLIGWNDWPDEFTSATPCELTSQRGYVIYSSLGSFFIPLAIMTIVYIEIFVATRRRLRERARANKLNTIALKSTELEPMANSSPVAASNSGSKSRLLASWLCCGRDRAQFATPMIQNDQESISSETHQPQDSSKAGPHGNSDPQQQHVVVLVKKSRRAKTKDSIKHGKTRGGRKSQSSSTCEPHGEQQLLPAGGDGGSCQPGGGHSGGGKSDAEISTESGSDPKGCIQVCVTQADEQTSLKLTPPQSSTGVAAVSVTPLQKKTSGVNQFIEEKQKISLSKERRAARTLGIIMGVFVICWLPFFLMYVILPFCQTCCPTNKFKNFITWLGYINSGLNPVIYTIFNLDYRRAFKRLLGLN
Test: Intracellular cAMP level in cells expressing TyrR
Type: cell-based
endpoint: Affects Intracellular cAMP (Yes or No)

Here's what some known entries look like.
For the compound shown here, OCC=Cc1ccccc1 [cinnamyl alcohol] , give the reported Affects Intracellular cAMP (Yes or No). No

For the compound shown here, CC(C)=CCC/C(C)=C/CO [geraniol] , give the reported Affects Intracellular cAMP (Yes or No). Yes

For the compound shown here, Cc1ccc(C(C)C)cc1 [Rx10, p-cymene] , give the reported Affects Intracellular cAMP (Yes or No). Yes

For the compound shown here, COc1cc(C=O)ccc1O [vanillin] , give the reported Affects Intracellular cAMP (Yes or No). No

For the compound shown here, CCC(=O)OCCc1ccccc1 [phenethyl proprionate] , give the reported Affects Intracellular cAMP (Yes or No). Yes

For the compound shown here, C/C=C/c1ccc(OC)cc1 [anethole] , give the reported Affects Intracellular cAMP (Yes or No). Yes

For the compound shown here, CC1=CCC2CC1C2(C)C (stereo not drawn) [α-pinene] , give the reported Affects Intracellular cAMP (Yes or No). No

Alright, here's another compound for you.
For the compound shown here, CCC(C)(O)CCCC(C)C (centres unmarked) [tetrahydrolinalool] , give the reported Affects Intracellular cAMP (Yes or No). Yes
